# study_system: human oxytocin receptor (Homo sapiens, UniProt P30559)
# Construct: host or cells: CHO cells, stably transfected (pcDNA3.1 vector); membranes
# Sequence (P30559 whole entry): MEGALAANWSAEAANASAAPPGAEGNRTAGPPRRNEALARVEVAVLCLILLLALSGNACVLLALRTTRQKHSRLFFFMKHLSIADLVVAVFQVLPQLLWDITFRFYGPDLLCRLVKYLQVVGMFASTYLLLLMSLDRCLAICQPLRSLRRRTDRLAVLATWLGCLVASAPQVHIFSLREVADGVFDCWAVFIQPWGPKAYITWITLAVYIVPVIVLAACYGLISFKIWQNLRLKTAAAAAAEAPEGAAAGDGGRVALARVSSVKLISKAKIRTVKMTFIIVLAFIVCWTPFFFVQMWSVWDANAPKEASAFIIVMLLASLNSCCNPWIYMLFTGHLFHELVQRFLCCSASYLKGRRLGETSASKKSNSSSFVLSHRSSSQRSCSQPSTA
# assay_notes: Oxytocin binding in CHO cell membranes expressing human oxytocin receptors ([3H]oxytocin)
# settings: values in parentheses, read-out: OT (IC50)
measure_name: IC50 (nM)
The reply should contain only the number, in nM.

Under human oxytocin receptor (Homo sapiens, UniProt P30559): report IC50 of COc1cc(C2=CCCCC2)c(Cl)cc1C(=O)N1Cc2cccn2Cc2ccccc21 [Example 1] .
7.74

###

# study_system: human vasopressin V2 receptor subtype (Homo sapiens, UniProt P30518)
# Construct: host or cells: CHO cells, stably transfected (pZeoSV vector); membranes
# Sequence (P30518 whole entry): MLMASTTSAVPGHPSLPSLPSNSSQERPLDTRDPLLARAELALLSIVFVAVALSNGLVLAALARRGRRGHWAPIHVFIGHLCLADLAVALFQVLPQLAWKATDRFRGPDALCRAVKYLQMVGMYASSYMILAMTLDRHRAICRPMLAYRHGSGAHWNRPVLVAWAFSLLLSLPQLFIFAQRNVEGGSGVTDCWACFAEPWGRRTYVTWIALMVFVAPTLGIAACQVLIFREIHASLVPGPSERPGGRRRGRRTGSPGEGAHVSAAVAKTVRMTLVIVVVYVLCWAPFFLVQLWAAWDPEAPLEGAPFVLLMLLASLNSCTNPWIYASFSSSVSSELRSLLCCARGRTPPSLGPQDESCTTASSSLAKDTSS
# assay_notes: Vasopressin binding in CHO cell membranes expressing human vasopressin V2 subtype receptors ([3H]arginine vasopressin)
# settings: 100 nM, values without parentheses
measure_name: inhibition at 0.1 µM

Observe how each entry below is paired with its result.
{"columns": ["compound", "study_system", "inhibition at 0.1 µM"],
 "data": [
  ["O=C(c1ccc(C2=CCCCC2)cc1Cl)N1Cc2cccn2Cc2ccccc21", "human vasopressin V2 receptor subtype (Homo sapiens, UniProt P30518)", "65%"],
  ["CC1=C(c2ccc(C(=O)N3Cc4cccn4Cc4ccccc43)cc2C)CCC[C@H]1O (single isomer, unassigned) [Example 41]", "human vasopressin V2 receptor subtype (Homo sapiens, UniProt P30518)", "40%"],
  ["Cc1cc(C(=O)N2Cc3cccn3Cc3ccccc32)ccc1C1=CC(O)CCC1 (centres unmarked)", "human vasopressin V2 receptor subtype (Homo sapiens, UniProt P30518)", "48%"],
  ["CC1(C)C=C(c2ccc(C(=O)N3Cc4cccn4Cc4ccccc43)cc2)CC(C)(C)C1", "human vasopressin V2 receptor subtype (Homo sapiens, UniProt P30518)", "18%"],
  ["CC1=C(c2ccc(C(=O)N3Cc4cccn4Cc4ccccc43)cc2C)CCCC1N (centres unmarked)", "human vasopressin V2 receptor subtype (Homo sapiens, UniProt P30518)", "27%"]
]}

Report inhibition at 0.1 µM for Cc1cc(C(=O)N2Cc3cccn3Cc3ccccc32)ccc1C1=CCCCC1(C)C
13%

Report inhibition at 0.1 µM for CC1=C(c2ccc(C(=O)N3Cc4cccn4Cc4ccccc43)cc2C)C(C)CCC1 (centres unmarked)
0%

Report inhibition at 0.1 µM for CC1=C(c2ccc(C(=O)N3Cc4cccn4Cc4ccccc43)cc2C)CCC[C@@H]1O (single isomer, unassigned)
45%
